- Assayed target: Signal peptidase I (Escherichia coli K-12) (UniProt P00803)
- Sequence (P00803 whole entry): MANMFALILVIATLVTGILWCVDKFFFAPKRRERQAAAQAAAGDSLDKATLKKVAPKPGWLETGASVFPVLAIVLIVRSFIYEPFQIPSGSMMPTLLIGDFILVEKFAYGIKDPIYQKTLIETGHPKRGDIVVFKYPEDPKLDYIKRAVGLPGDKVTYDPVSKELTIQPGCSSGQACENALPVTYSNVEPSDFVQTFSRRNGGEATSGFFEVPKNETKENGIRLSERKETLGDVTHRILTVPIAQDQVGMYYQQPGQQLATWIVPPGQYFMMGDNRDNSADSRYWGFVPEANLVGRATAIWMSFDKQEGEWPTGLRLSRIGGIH
- Assay notes: Inhibition of LepB in Escherichia coli IMP assessed as antibacterial activity by measuring reduction in bacterial growth incubated for 18 hrs by two-fold serial dilution method
Measured metric: MIC (ng/mL)

Reference set, count: 5
CCCCc1ccc(-c2ccc(C(=O)N[C@@H](CCN)C(=O)N(C)[C@@H]3C(=O)N[C@@H](C)C(=O)N[C@H](C(=O)NCC#N)Cc4ccc(OCCN)c(c4)-c4cc3ccc4OCCN)cc2)cc1 : 16
Cc1cc(-c2ccc(C(C)(C)C)cc2)nc(C)c1C(=O)N[C@@H](CCN)C(=O)N(C)[C@@H]1C(=O)N[C@@H](C)C(=O)N[C@H](C(=O)NCC#N)Cc2ccc(OCCN)c(c2)-c2cc1ccc2OCCN : 4
CCCCCCCCCCCC(=O)N[C@@H](CCN)C(=O)N(C)[C@@H]1C(=O)N[C@@H](C)C(=O)N[C@H](C(=O)NCC#N)Cc2ccc(OCCN)c(c2)-c2cc1ccc2OCCN : 7
Cc1cc(-c2ccc(C(C)(C)C)cc2)ccc1C(=O)N[C@@H](CCN)C(=O)N(C)[C@@H]1C(=O)N[C@@H](C)C(=O)N[C@H](C(=O)NCC#N)Cc2ccc(OCCN)c(c2)-c2cc1ccc2OCCN : 11
Cc1cc(-c2ccc(C(C)C)cc2)ccc1C(=O)N[C@@H](CCN)C(=O)N(C)[C@@H]1C(=O)N[C@@H](C)C(=O)N[C@H](C(=O)NCC#N)Cc2ccc(OCCN)c(c2)-c2cc1ccc2OCCN : 7

I. C[C@@H]1NC(=O)[C@@H](N(C)C(=O)[C@H](CCN)NC(=O)c2ccc(-c3ccc(Cl)cc3)cc2)c2ccc(OCCN)c(c2)-c2cc(ccc2OCCN)C[C@@H](C(=O)NCC#N)NC1=O
II. Cc1cc(-c2ccc(C(C)(C)C)cc2)ncc1C(=O)N[C@@H](CCN)C(=O)N(C)[C@@H]1C(=O)N[C@@H](C)C(=O)N[C@H](C(=O)NCC#N)Cc2ccc(OCCN)c(c2)-c2cc1ccc2OCCN
Query: I or II : whose MIC is greater? Your answer should be the label attached to the chosen record.
Reply: I
(I: 22 ng/mL, II: 4 ng/mL)

A. Cc1nc(-c2ccc(C(C)(C)C)cc2)c(N)cc1C(=O)N[C@@H](CCN)C(=O)N(C)[C@@H]1C(=O)N[C@@H](C)C(=O)N[C@H](C(=O)NCC#N)Cc2ccc(OCCN)c(c2)-c2cc1ccc2OCCN
B. Cc1nc(-c2ccc(C(C)(C)C)cc2)nc(C)c1C(=O)N[C@@H](CCN)C(=O)N(C)[C@@H]1C(=O)N[C@@H](C)C(=O)N[C@H](C(=O)NCC#N)Cc2ccc(OCCN)c(c2)-c2cc1ccc2OCCN
C. Cc1cc(-c2ccc(Cl)cc2)ccc1C(=O)N[C@@H](CCN)C(=O)N(C)[C@@H]1C(=O)N[C@@H](C)C(=O)N[C@H](C(=O)NCC#N)Cc2ccc(OCCN)c(c2)-c2cc1ccc2OCCN
Query: Please list these compounds in decreasing order of MIC. // respond by listing labels in the order requested
Reply: A, C, B
(A: 21 ng/mL, C: 10 ng/mL, B: 3 ng/mL)
